# Test system: 521955-158-R6-J3-PDC complex spheroid growth, % test/control;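 note: spheroids exposed to compounds for 7 days; 100% = DMSO vehicle control wells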
# Measurement description: Anticancer human tumor 521955-158-R6-J3-PDC patient-derived pancreatic carcinoma cell line growth inhibition [Asc]
# Conditions used: second compound 0.0316 µM; first compound 0.01 µM; active compounds read low
Measured metric: viability, T/C (%)
Output spec: scalar in %, unitless text.

Prompt: Endpoint output: viability, T/C of COc1c(OCCCN2CCOCC2)ccc2c3n(c(=NC(=O)c4cnc(N)nc4)nc12)CCN3 + Cc1c(S(C)(=O)=O)c(-c2cc(F)cc(N3CCN(c4ccc(NS(=O)(=O)c5ccc(NC(CCN6CCC(C(=O)OCCCP(=O)(O)O)CC6)CSc6ccccc6)c(S(=O)(=O)C(F)(F)F)c5)cc4)CC3)c2)c(-c2ccc(Cl)cc2)n1C(C)C . Value?
Response: 84.8

Prompt: Next record, please: Cn1ncnc1[C@H]1c2n[nH]c(=O)c3cc(F)cc(c23)N[C@@H]1c1ccc(F)cc1 + Cc1c(S(C)(=O)=O)c(-c2cc(F)cc(N3CCN(c4ccc(NS(=O)(=O)c5ccc(NC(CCN6CCC(C(=O)OCCCP(=O)(O)O)CC6)CSc6ccccc6)c(S(=O)(=O)C(F)(F)F)c5)cc4)CC3)c2)c(-c2ccc(Cl)cc2)n1C(C)C
Response: 82

Prompt: Next record, please: O=C(c1ccc(F)c(F)c1Nc1ccc(I)cc1F)N1CC(O)([C@@H]2CCCCN2)C1 + Cc1c(S(C)(=O)=O)c(-c2cc(F)cc(N3CCN(c4ccc(NS(=O)(=O)c5ccc(NC(CCN6CCC(C(=O)OCCCP(=O)(O)O)CC6)CSc6ccccc6)c(S(=O)(=O)C(F)(F)F)c5)cc4)CC3)c2)c(-c2ccc(Cl)cc2)n1C(C)C
Response: 83.5

Prompt: Next record, please: COc1c(OCCCN2CCOCC2)ccc2c3n(c(=NC(=O)c4cnc(N)nc4)nc12)CCN3 + CNC(C)C(=O)NC1CN(S(=O)(=O)c2cccc(S(=O)(=O)N3CCC4CCC(C(=O)NC(c5ccccc5)c5ccccc5)N4C(=O)C(NC(=O)C(C)NC)C3)c2)CCC2CCC(C(=O)NC(c3ccccc3)c3ccccc3)N2C1=O
Response: 63.9

Prompt: Next record, please: CNC(C)C(=O)NC1CN(S(=O)(=O)c2cccc(S(=O)(=O)N3CCC4CCC(C(=O)NC(c5ccccc5)c5ccccc5)N4C(=O)C(NC(=O)C(C)NC)C3)c2)CCC2CCC(C(=O)NC(c3ccccc3)c3ccccc3)N2C1=O (stereo unspecified) + Cc1c(S(C)(=O)=O)c(-c2cc(F)cc(N3CCN(c4ccc(NS(=O)(=O)c5ccc(NC(CCN6CCC(C(=O)OCCCP(=O)(O)O)CC6)CSc6ccccc6)c(S(=O)(=O)C(F)(F)F)c5)cc4)CC3)c2)c(-c2ccc(Cl)cc2)n1C(C)C
Response: 90.1

Prompt: Next record, please: CCN1CCN(Cc2ccc(Nc3ncc(F)c(-c4cc(F)c5nc(C)n(C(C)C)c5c4)n3)nc2)CC1 + CNC(C)C(=O)NC1CN(S(=O)(=O)c2cccc(S(=O)(=O)N3CCC4CCC(C(=O)NC(c5ccccc5)c5ccccc5)N4C(=O)C(NC(=O)C(C)NC)C3)c2)CCC2CCC(C(=O)NC(c3ccccc3)c3ccccc3)N2C1=O
Response: 82.1
